B1: LINE1-full (parent)
chain: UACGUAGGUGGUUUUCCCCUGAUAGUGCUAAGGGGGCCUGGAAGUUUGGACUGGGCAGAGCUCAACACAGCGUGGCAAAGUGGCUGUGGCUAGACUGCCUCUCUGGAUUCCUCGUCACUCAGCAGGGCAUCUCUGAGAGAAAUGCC

variants of: B1; assay: self-cleavage, relative activity (ratio to wild type); higher = more cleavage; in vitro, sequencing; the parent is a self-cleaving ribozyme
PROPERTY_NAME: self-cleavage
Respond using a number only.

Here is how some variants turned out for self-cleavage.
A31G U96C	0.16
A42G G144U	1.65
G4U U13C	0.93
A24U U108C	1.33
U73C A142G	1.82

# get_value(readout='self-cleavage', item= `C111U` ) 1.38

Give its self-cleavage value. Item: U73A A117C 1.99

Need self-cleavage of U15C U104C , thanks. 1.86

Need self-cleavage, item C99U U119C 0.96

What value of self-cleavage has been reported for the following variant? U9A A129U 1.43

May I ask what self-cleavage has been recorded for C19A U46C ? 1.22
